- System: Hepatotoxicity
- measurement protocol: FDA HLAED, alkaline phosphatase increase
- protocol conditions: human
property name: Alkaline Phosphatase Increase - Index Value
Answer with a number only.

### Prompt Read off the recorded Alkaline Phosphatase Increase - Index Value for N[C@@H](C(=O)N[C@@H]1C(=O)N2C(C(=O)O)=C(Cl)CC[C@H]12)c1ccccc1 [LORACARBEF ANHYDROUS]
### Response 0.2

### Prompt Read off the recorded Alkaline Phosphatase Increase - Index Value for COc1ccccc1OCCNCC(O)COc1cccc2[nH]c3ccccc3c12 (stereo not drawn)
### Response 0

### Prompt Read off the recorded Alkaline Phosphatase Increase - Index Value for CSc1ccc2c(c1)N(CCC1CCCCN1C)c1ccccc1S2 (stereo not drawn)
### Response 3.2

### Prompt Read off the recorded Alkaline Phosphatase Increase - Index Value for N#Cc1cc(NC(=O)C(=O)O)c(Cl)c(NC(=O)C(=O)O)c1 [LODOXAMIDE]
### Response 0

### Prompt Read off the recorded Alkaline Phosphatase Increase - Index Value for `C[C@@H]1C[C@H]2[C@@H]3CCC4=CC(=O)C=C[C@]4(C)[C@@]3(Cl)[C@@H](O)C[C@]2(C)[C@@]1(O)C(=O)CCl`
### Response 0

### Prompt Read off the recorded Alkaline Phosphatase Increase - Index Value for `O=C(O)c1cc(-c2ccc(F)cc2F)ccc1O`
### Response 0

### Prompt Read off the recorded Alkaline Phosphatase Increase - Index Value for `CCC(=O)O[C@@H](O[P@](=O)(CCCCc1ccccc1)CC(=O)N1C[C@H](C2CCCCC2)C[C@H]1C(=O)O)C(C)C`
### Response 0.3

### Prompt Read off the recorded Alkaline Phosphatase Increase - Index Value for `Nc1cc(N2CCCCC2)nc(N)[n+]1[O-]`
### Response 0.7

### Prompt Read off the recorded Alkaline Phosphatase Increase - Index Value for `C#CCN(C)[C@H](C)Cc1ccccc1`
### Response 2.2

### Prompt Read off the recorded Alkaline Phosphatase Increase - Index Value for `Nc1nc2c(ncn2COCCO)c(=O)[nH]1`
### Response 0.9

### Prompt Read off the recorded Alkaline Phosphatase Increase - Index Value for COc1cc2nc(N3CCN(C(=O)C4CCCO4)CC3)nc(N)c2cc1OC (stereo not drawn)
### Response 0.5

### Prompt Read off the recorded Alkaline Phosphatase Increase - Index Value for `Cc1nc2n(c(=O)c1CCN1CCC(c3noc4cc(F)ccc34)CC1)CCCC2`
### Response 1.6

### Prompt Read off the recorded Alkaline Phosphatase Increase - Index Value for `C[N+](C)(C)CCO.Cn1c(=O)c2[n-]cnc2n(C)c1=O`
### Response 0

### Prompt Read off the recorded Alkaline Phosphatase Increase - Index Value for `Nc1ncnc2c1ncn2[C@@H]1O[C@H](CO)[C@@H](O)[C@H]1O`
### Response 0

### Prompt Read off the recorded Alkaline Phosphatase Increase - Index Value for `CCOC(=O)[C@H](CCc1ccccc1)N[C@@H](C)C(=O)N1CCC[C@H]1C(=O)O`
### Response 0.9

### Prompt Read off the recorded Alkaline Phosphatase Increase - Index Value for CC(=O)N1CCN(c2ccc(OCC3COC(Cn4ccnc4)(c4ccc(Cl)cc4Cl)O3)cc2)CC1 (stereo not drawn)
### Response 5.4

### Prompt Read off the recorded Alkaline Phosphatase Increase - Index Value for COc1cccc(C2(O)CCCCC2CN(C)C)c1 (stereo not drawn)
### Response 0.1

---

Provide the reported Alkaline Phosphatase Increase - Index Value of each item.
- Test system: Hepatotoxicity
- measurement protocol: FDA HLAED, alkaline phosphatase increase
- protocol conditions: human

### Prompt Read off the recorded Alkaline Phosphatase Increase - Index Value for Clc1ccc(C(Cn2ccnc2)OCc2ccsc2Cl)c(Cl)c1 (centres undefined)
### Response 0

### Prompt Read off the recorded Alkaline Phosphatase Increase - Index Value for `Nc1ccc(O)c(C(=O)O)c1`
### Response 1.3

### Prompt Read off the recorded Alkaline Phosphatase Increase - Index Value for CCCN1C[C@H](CSC)C[C@@H]2c3cccc4[nH]cc(c34)C[C@H]21 [PERGOLIDE]
### Response 1.3

### Prompt Read off the recorded Alkaline Phosphatase Increase - Index Value for `NCCNCCNCCN`
### Response 0

### Prompt Read off the recorded Alkaline Phosphatase Increase - Index Value for C=CC[N+]1([C@H]2C[C@H]3[C@@H]4CC[C@H]5C[C@H](O)[C@@H](N6CCOCC6)C[C@]5(C)[C@H]4CC[C@]3(C)[C@H]2OC(C)=O)CCCC1.[Br-] [ROCURONIUM BROMIDE]
### Response 0

### Prompt Read off the recorded Alkaline Phosphatase Increase - Index Value for `CO[C@@]1(NC(=O)CSCC#N)C(=O)N2C(C(=O)O)=C(CSc3nnnn3C)CS[C@@H]21`
### Response 0.1

### Prompt Read off the recorded Alkaline Phosphatase Increase - Index Value for `NNC(=O)c1ccncc1`
### Response 12.7

### Prompt Read off the recorded Alkaline Phosphatase Increase - Index Value for NC1=NC(=O)C(c2ccccc2)O1 (centres undefined)
### Response 14

### Prompt Read off the recorded Alkaline Phosphatase Increase - Index Value for CN(C)CCC=C1c2ccccc2COc2ccccc21 [DOXEPIN]
### Response 434.8

### Prompt Read off the recorded Alkaline Phosphatase Increase - Index Value for `O=C(O)c1cn(C2CC2)c2cc(N3CCNCC3)c(F)cc2c1=O`
### Response 2.3

### Prompt Read off the recorded Alkaline Phosphatase Increase - Index Value for CC(NC(C)(C)C)C(=O)c1cccc(Cl)c1 (centres undefined)
### Response 0

### Prompt Read off the recorded Alkaline Phosphatase Increase - Index Value for `COc1cc(C(=O)NS(=O)(=O)c2ccccc2C)ccc1Cc1cn(C)c2ccc(NC(=O)OC3CCCC3)cc12`
### Response 2.6

### Prompt Read off the recorded Alkaline Phosphatase Increase - Index Value for `Nc1ccn([C@@H]2O[C@H](CO)[C@@H](O)C2(F)F)c(=O)n1`
### Response 4.3

### Prompt Read off the recorded Alkaline Phosphatase Increase - Index Value for `Nc1c2c(nc3ccccc13)CCCC2`
### Response 14.1

### Prompt Read off the recorded Alkaline Phosphatase Increase - Index Value for `Nc1ccn([C@@H]2O[C@H](CO)[C@@H](O)[C@@H]2O)c(=O)n1`
### Response 4.1

### Prompt Read off the recorded Alkaline Phosphatase Increase - Index Value for Clc1ccc(CSC(Cn2ccnc2)c2ccc(Cl)cc2Cl)cc1 (centres undefined)
### Response 0

### Prompt Read off the recorded Alkaline Phosphatase Increase - Index Value for `CCn1cc(C(=O)O)c(=O)c2cc(F)c(N3CCNCC3)nc21`
### Response 0

### Prompt Read off the recorded Alkaline Phosphatase Increase - Index Value for `C[C@H]1C[C@H]2[C@@H]3CCC4=CC(=O)C=C[C@]4(C)[C@@]3(Cl)[C@@H](O)C[C@]2(C)[C@@]1(O)C(=O)CO`
### Response 0
